- Tested on: veratridine-induced glutamate release
- assay_comment: veratridine-induced [3H]-glutamate release from rat spinal cord slices
- run_parameters: read-out: IC50, inhibition of veratridine-induced glutamate release; veratridine 40 μM, rat spinal cord slices
measure_name: IC50 (µM)
Numbers only, in µM.

Entry under review: CCC(COC(=O)c1cc(OC)c(OC)c(OC)c1)(NC)c1ccccc1 (stereo not shown) [Nor-TMB, N-desmethyl trimebutine] . Reported IC50?
8.4

====

- Tested on: sodium currents in DRG neurons
- assay_comment: whole cell patch clamp, sodium currents in DRG neurons
- Assay type: cell-based, rat
- run_parameters: read-out: IC50, sodium current block (dose-response curve, text)
measure_name: pIC50
Numbers only, as −log10 of the molar value.

Which value of pIC50 has been reported for CCC(COC(=O)c1cc(OC)c(OC)c(OC)c1)(c1ccccc1)N(C)C.O=C(O)/C=C\C(=O)O (racemic) [trimebutine, maleate] in the records?
5.98

====

- Test system: sodium currents in DRG neurons
- assay_comment: whole cell patch clamp, sodium currents in DRG neurons
- Format: cell-based, rat
- run_parameters: read-out: IC50, best fit to Hill function (FIG. 4D legend)
measure_name: pIC50
Answers are plain numbers, as −log10 of the molar value.

Requested field: pIC50. Item: CCC(COC(=O)c1cc(OC)c(OC)c(OC)c1)(c1ccccc1)N(C)C.O=C(O)/C=C\C(=O)O (racemic) [trimebutine, maleate]
6.16
